subject.of.test: Metabotropic glutamate receptor 4 (Homo sapiens) (UniProt Q14833)
protocol.description: human mGluR4 response to M1 antagonist hits, M1 allosteric modulator project, cell-based, antagonist mode, secondary assay 1 (AID 678);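 further: raw unnormalized fluorescence span taken in the window right after glutamate addition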
condition: CHO-mGluR4 calcium flux, Fluo-4 fluorescence, glutamate EC80; at 10 µM; active compounds read low
About 15 (0.9%) of roughly 1,700 compounds were called active. Not all results are given here.
As shown below, each of these compounds has a reported fluorescence response (max-min) value.
Please state the value as a number alone, without comment.

Examples with their reported fluorescence response (max-min) follow.
CCn1c(=O)cc(OCC(=O)NCCCN2CCN(c3cccc(Cl)c3)CC2)c2ccccc21 ... 275
O=C(NCC(F)(F)F)Nc1nnc(C(F)(F)F)s1 ... 203
O=C(C(c1ccccc1)c1ccccc1)N1CCN(CC(O)COc2ccccc2)CC1 (stereo not given) ... 172
C=C(C)Cn1c(N2CCCC2)nc2c1c(=O)[nH]c(=O)n2C ... 203
CCOC(=O)Nc1ccc2c(c1)N(C(=O)CN1CCN3CCCC3C1)c1ccccc1CC2 (stereo not given) ... 187
CCOC(=O)N1CCN(C(=O)C2CCN(c3ncnc4c3sc3cccc(F)c34)CC2)CC1 ... 221
COC(CCN(C)C)(c1ccccc1)c1ccccc1 ... 257
CCOC(=O)N1CCN(S(=O)(=O)c2cc(Br)cc3c2N(C(=O)C2CC2)CC3)CC1 ... 246

Q: Any idea what its fluorescence response (max-min) is? The compound is COCCN(C(=O)CCC(=O)Nc1ccccn1)C(C(=O)NCCC(C)C)c1ccc(OC)cc1 (stereo not given)
A: 243

Q: Any idea what its fluorescence response (max-min) is? The compound is CC(C)(C)n1nnnc1C(c1cccs1)N(Cc1cccnc1)CC1CCCO1 (stereo not given)
A: 241
